targetDesc: T1, Beta2-glycoprotein I (β2GPI), full-length, human (human, UniProt P02749 20-345)
T1 construct: mature; Two preparations of the same native protein were used, serum and purified from plasma; the assay field of each row says which; Where anti-β2GPI antibodies (Cedarlane CL20021HP, peroxidase-conjugated) were present, β2GPI stood as dimeric β2GPI/antibody complexes; also called B2GPI; β2GPI in normal human serum
T1 sequence (looked up): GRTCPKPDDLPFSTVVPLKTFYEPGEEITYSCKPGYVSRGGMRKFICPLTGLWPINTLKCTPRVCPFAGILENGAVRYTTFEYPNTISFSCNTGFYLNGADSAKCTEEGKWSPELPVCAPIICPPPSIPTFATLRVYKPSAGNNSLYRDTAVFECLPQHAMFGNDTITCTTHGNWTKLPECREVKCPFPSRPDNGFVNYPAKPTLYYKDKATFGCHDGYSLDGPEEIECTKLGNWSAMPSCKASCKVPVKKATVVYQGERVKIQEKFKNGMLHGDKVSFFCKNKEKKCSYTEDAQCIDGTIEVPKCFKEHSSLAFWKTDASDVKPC
testSummary: inhibition of binding of β2GPI in 1% human serum to a cardiolipin-coated plate, without anti-β2GPI antibodies during binding (monomeric β2GPI); OD405, one-site fit
experimentalEndpoint: pIC50
The value called pIC50 is obtained by taking minus log10 of the concentration in mol/L.

Q: Entry dimeric inhibitor A1-A1 (two A1 ligand-binding LA modules of ApoER2 connected by a Gly-Ser-Ser-Gly linker) (designed binder) AECEEDQFRCRNERCIPLVWRCDEDNDCSDNSDEDDCGSSGCEEDQFRCRNERCIPLVWRCDEDNDCSDNSDEDDCEA needs its pIC50 filled in; supply it.
A: 3.72
